# credit: the array DNA melting data of Ke et al.

# Assay Protocol: melting temperature; melt of duplexes
# Recorded Conditions: sodium 0.0675 M; strand 1 µM
For each entry below, report its Tm value.
Return type: number; implicit unit °C.

IN: I am curious: what Tm value has been reported for CGACGTGCCGCATGTGCTG+CAGCACATCACGCACGTCG ((((((((...((((((((+))))))))...)))))))) ?
OUT: 48.3

IN: Would you kindly repeat that for CGACGTGCGATATGTGCTG+CAGCACATGGCGCACGTCG (((((((((..((((((((+))))))))..))))))))) ?
OUT: 57.4

IN: Would you kindly repeat that for CGACGTGCCGTATGTGCTG+CAGCACATTGAGCACGTCG ((((((((...((((((((+))))))))...)))))))) ?
OUT: 49.8

IN: Would you kindly repeat that for CGACGTGCGTCATGTGCTG+CAGCACATATGGCACGTCG ((((((((...((((((((+))))))))...)))))))) ?
OUT: 49.8
